Tested on: anti-Aβ antibodies in sera of vaccinated patients
Assay: Epitope mapping, competitive binding inhibition EIA with patient sera (10-mer peptides, IC50)
Parameters: species or system human
Details: serum 16 wpi of vaccinated patient P106
Record form. Attribute: Epitope mapping, fine specificity analysis, serum of subject P106. Fill in for each entry.
Please give the numeric answer without any surrounding text.

Given the entry 20 (RHDSGYEVHH; PEPTIDE (1)..(10) Abeta 5-14 or APP 770(R676-H685); listed as Homo sapiens) [compound 20] , report its measured Epitope mapping, fine specificity analysis, serum of subject P106.
0

Here is the next substance: 10 (EISEVKMDAE; PEPTIDE (1)..(10) Abeta -7-3 or APP 770(E665-E674); listed as Homo sapiens) [compound 10]
0

Also check 13 (EVKMDAEFRH; PROPEP (1)..(10) Abeta -4-6 or APP 770(E668-H677); listed as Homo sapiens) [compound 13]
0

----------
System: anti-Aβ antibodies in sera from vaccinated baboons
Assay: Epitope mapping, 10-mer peptide-based ELISA with sera from vaccinated baboons
Conditions: peptide as plate coating, 0 weeks post immunization
readout kind: ELISA Titer titers (Log10)
Your answer should be a plain number; it is taken to be in Log10.

// lookup ELISA Titer titers (Log10) for 19 (FRHDSGYEVH) [Peptide 19]
0.20

One more substance: 22 (DSGYEVHHQK) [Peptide 22]
0.32

Field entry: 13 (EVKMDAEFRH) [Peptide 13]
0.19

How about 15 (KMDAEFRHDS) [Peptide 15] ?
0.26

Repeat with 25 (YEVHHQKLVF) [Peptide 25]
0.16

Follow-up entry: 14 (VKMDAEFRHD) [Peptide 14]
0.27

Record: 24 (GYEVHHQKLV) [Peptide 24]
0.13

Would you mind doing 23 (SGYEVHHQKL) [Peptide 23] as well?
0.13

Also 8 (TEEISEVKMD) [Peptide 8] ?
0.23

Would you mind doing 21 (HDSGYEVHHQ) [Peptide 21] as well?
0.21

What do you have for 16 (MDAEFRHDSG) [Peptide 16] ?
0.26

Input 11 (ISEVKMDAEF) [Peptide 11]
0.20

Item: 18 (EFRHDSGYEV) [Peptide 18]
0.24

Next record, please: 28 (HHQKLVFFAE) [Peptide 28]
0.19

# iterate: 17 (AEFRHDSGYE) [Peptide 17]
0.25

Then this substance: 9 (EEISEVKMDA) [Peptide 9]
0.24

And 29 (HQKLVFFAED) [Peptide 29] ?
0.18

Continue with 12 (SEVKMDAEFR) [Peptide 12]
0.21

// same read-out, input: 10 (EISEVKMDAE) [Peptide 10]
0.23

Same question, 20 (RHDSGYEVHH) [Peptide 20] this time
0.23

----------
Test system: anti-Aβ antibodies in sera of vaccinated patients
Assay: Epitope mapping, competitive binding inhibition EIA with patient sera (10-mer peptides, IC50)
Design: species or system human
Details: serum 16 wpi of vaccinated patient P201
readout kind: Epitope mapping, fine specificity analysis, serum of subject P201
No unit in the answer, please; the number alone is enough.

Record request: Epitope mapping, fine specificity analysis, serum of subject P201 value, item 23 (SGYEVHHQKL; PEPTIDE (1)..(10) Abeta 8-17 or APP 770(S679-L688); listed as Homo sapiens) [compound 23]
0

Now consider 11 (ISEVKMDAEF; PEPTIDE (1)..(10) Abeta -6-4 or APP 770(I666-F675); listed as Homo sapiens) [compound 11] .
0

Proceed to 14 (VKMDAEFRHD; PEPTIDE (1)..(10) Abeta -3-7 or APP 770(V669-D678); listed as Homo sapiens) [compound 14]
0

Param item: 28 (HHQKLVFFAE; PEPTIDE (1)..(10) Abeta 13-22 or APP 770(H684-E693); listed as Homo sapiens) [compound 28]
0

Also, 15 (KMDAEFRHDS; PEPTIDE (1)..(10) Abeta -2-8 or APP 770(K670-S679); listed as Homo sapiens) [compound 15] please.
2

Again, but for 13 (EVKMDAEFRH; PROPEP (1)..(10) Abeta -4-6 or APP 770(E668-H677); listed as Homo sapiens) [compound 13]
58

Same read-out for 18 (EFRHDSGYEV; PEPTIDE (1)..(10) Abeta 3-12 or APP 770(E674-V683); listed as Homo sapiens) [compound 18] ?
0

Could you do the same for 19 (FRHDSGYEVH; PEPTIDE (1)..(10) Abeta 4-13 or APP 770(F675-H684); listed as Homo sapiens) [compound 19] , please?
0

Moving on to the next substance: 30 (QKLVFFAEDV; PEPTIDE (1)..(10) Abeta 15-24 or APP 770(Q686-V695); listed as Homo sapiens) [compound 30]
0

And the next one, 20 (RHDSGYEVHH; PEPTIDE (1)..(10) Abeta 5-14 or APP 770(R676-H685); listed as Homo sapiens) [compound 20] ?
0

Also check 21 (HDSGYEVHHQ; PEPTIDE (1)..(10) Abeta 6-15 or APP 770(H677-Q686); listed as Homo sapiens) [compound 21]
0

Also check 8 (TEEISEVKMD; PEPTIDE (1)..(10) Abeta -9-1 or APP 770(T663-D672); listed as Homo sapiens) [compound 8]
0

What about this substance? 16 (MDAEFRHDSG; PEPTIDE (1)..(10) Abeta -1-9 or APP 770(M671-G680); listed as Homo sapiens) [compound 16]
9

Also check 9 (EEISEVKMDA; PEPTIDE (1)..(10) Abeta -8-2 or APP 770(E664-A673); listed as Homo sapiens) [compound 9]
0

// next record 25 (YEVHHQKLVF; PEPTIDE (1)..(10) Abeta 10-19 or APP 770(Y681-F690); listed as Homo sapiens) [compound 25]
0

Please do the same for 22 (DSGYEVHHQK; PEPTIDE (1)..(10) Abeta 7-16 or APP 770(D678-K687); listed as Homo sapiens) [compound 22] as well.
0

// repeat for 10 (EISEVKMDAE; PEPTIDE (1)..(10) Abeta -7-3 or APP 770(E665-E674); listed as Homo sapiens) [compound 10] and report
0

Now try 17 (AEFRHDSGYE; PEPTIDE (1)..(10) Abeta 2-11 or APP 770(A673-E682); listed as Homo sapiens) [compound 17] .
3

Measured values drawn from patent US9102752B2 for this set.
